Hey, just so you know, these numbers are from ChEMBL document CHEMBL4393656.

test system: Staphylococcus aureus; test: Growth inhibition of methicillin-resistant Staphylococcus aureus ATCC 43300 incubated for 18 hrs; assay type: organism-based
For each of the molecules below, state its MIC.
Include the unit right after the number.

What value of measured MIC is listed for CC(C)CCOc1ccccc1-c1ccccc1OCc1cn([C@H](CCCNC(=N)N)C(=O)NCCc2ccc(F)cc2)nn1.Cl ?
16 µg/mL

What value of measured MIC is listed for CC(C)CCOc1ccccc1-c1ccccc1OCc1cn([C@H](CCCCN)C(=O)N[C@H](CCCNC(=N)N)Cn2cc(Cc3ccccc3)nn2)nn1.Cl.Cl ?
4 µg/mL

What value of measured MIC is listed for CC(C)CCOc1ccccc1-c1ccccc1OCc1cn([C@H](CCCCN)C(=O)N[C@H](CCCNC(=N)N)Cn2cc(CC3CCCCC3)nn2)nn1.Cl.Cl ?
2 µg/mL

What value of measured MIC is listed for CC(C)CCOc1ccccc1-c1ccccc1OCc1cn([C@H](CCCCN)C(=O)N[C@H](CCCNC(=N)N)Cn2cc(CCc3ccccc3)nn2)nn1.Cl.Cl ?
2 µg/mL

What value of measured MIC is listed for CCCN(CC1CC1)C(=O)[C@@H](CCCNC(=N)N)n1cc(COc2ccccc2-c2ccccc2OCCC(C)C)nn1.Cl ?
8 µg/mL

What value of measured MIC is listed for CC(C)CCOc1ccccc1-c1ccccc1OCc1cn([C@H](CCCCN)C(=O)N[C@H](CCCNC(=N)N)Cn2cc(C3CCCCC3)nn2)nn1.Cl.Cl ?
4 µg/mL

What value of measured MIC is listed for CC(C)CCOc1ccccc1-c1ccccc1OCc1cn([C@H](CCCNC(=N)N)C(=O)Nc2ccccc2)nn1.Cl ?
8 µg/mL

What value of measured MIC is listed for CC(C)CCOc1ccc2ccccc2c1-c1c(OCc2cn([C@H](CCCNC(=N)N)C(=O)NCc3ccccc3)nn2)ccc2ccccc12.Cl ?
8 µg/mL

What value of measured MIC is listed for CC(C)CCOc1ccccc1-c1ccccc1OCc1cn([C@H](CCCCN)C(=O)NC2CCCCC2)nn1.Cl ?
8 µg/mL

What value of measured MIC is listed for CC(C)CCOc1ccc2ccccc2c1-c1c(OCC(=O)N[C@H](CCCNC(=N)N)C(=O)NCc2ccccc2)ccc2ccccc12.Cl ?
4 µg/mL

What value of measured MIC is listed for CC(C)CCOc1ccccc1-c1ccccc1OCc1cn([C@H](CCCNC(=N)N)C(=O)N[C@H](CCCCN)Cn2cc(Cc3ccccc3)nn2)nn1.Cl.Cl ?
8 µg/mL

What value of measured MIC is listed for CC(C)CCOc1ccc2ccccc2c1-c1c(OCc2cn([C@H](CCCCN)C(=O)N[C@H](CCCNC(=N)N)Cn3cc(CC4CCCCC4)nn3)nn2)ccc2ccccc12.Cl.Cl ?
2 µg/mL

What value of measured MIC is listed for CC(C)CCOc1ccccc1-c1ccccc1OCc1cn([C@H](CCCNC(=N)N)C(=O)Nc2cccc(F)c2)nn1.Cl ?
4 µg/mL

What value of measured MIC is listed for CC(C)CCOc1ccccc1-c1ccccc1OCc1cn([C@H](CCCNC(=N)N)C(=O)NC2CCCCC2)nn1.Cl ?
4 µg/mL
